Please respond with reported melting point for every item in the list.

Ask: Item Cc1cccc(C)c1CNc1cc(C(=O)N(C)C)cc2c1nc(C)n2C has what recorded melting point?
Reply: 142 to 143 °C

Ask: Item Cc1coc(C)c1N(C)c1cc(C(=O)N(C)C)cc2c1nc(C)n2C has what recorded melting point?
Reply: 163 to 164 °C

Ask: Item COCc1cc(OCc2ccccc2)c2nc(C)n(C)c2c1 has what recorded melting point?
Reply: 113 °C

---

Please respond with reported melting point for every item in the list.

Ask: Item CCc1cccc(C)c1CNc1cc(C(=O)O)cc2c1nc(C)n2C has what recorded melting point?
Reply: 312 to 314 °C

Ask: Item COn1c(C)nc2c(NCc3c(C)cccc3C)cc(C(=O)N(C)C)cc21 has what recorded melting point?
Reply: 128 to 129 °C

Ask: Item CNC(=O)c1cc(NCc2c(C)cccc2C)c2nc(C)n(C)c2c1 has what recorded melting point?
Reply: 252 to 253 °C

Ask: Item CCc1cccc(C)c1COc1cc(C(=O)N(C)C)cc2c1nc(C)n2C has what recorded melting point?
Reply: 161 to 162 °C

---

Please respond with reported melting point for every item in the list.

Ask: Item Cc1nc2c(O[C@@H]3c4ccccc4C[C@H]3O)cc(C(=O)N(C)C)cc2n1C.O=C(O)C(=O)O (relative stereo) [Example 10] has what recorded melting point?
Reply: 144 to 145 °C

Ask: Item COn1c(C)nc2c(NCc3c(C)cccc3C)cc(Br)cc21 [Example 77] has what recorded melting point?
Reply: 171 to 172 °C

Ask: Item CCc1cccc(C)c1CNc1cc(C(=O)N(C)C)cc2[nH]c(C)nc12 [Example 49] has what recorded melting point?
Reply: 228 to 230 °C

Ask: Item CCOC(=O)c1cc(NCc2c(C)cccc2C)c2nc(C)n(COCc3ccccc3)c2c1 [Example 64] has what recorded melting point?
Reply: 155 to 156 °C

Ask: Item Cc1nnc(-c2cc(NCc3c(C)cccc3C)c3nc(C)n(C)c3c2)o1 [Example 85] has what recorded melting point?
Reply: 256 to 257 °C

Ask: Item Cc1cccc(C)c1CNc1cc(Br)cc2c1nc(C)n2O [Example 76] has what recorded melting point?
Reply: 277 °C

---

Recorded Metric: melting point (°C)
Entry rule: numbers only, all in °C.

Ask: Item CNC(=O)c1cc(NCc2c(C)cccc2C)c2nc(C)[nH]c2c1 has what recorded melting point?
Reply: 298

Ask: Item COC(=O)c1cc(OCc2ccccc2)c2nc(C)n(C)c2c1 has what recorded melting point?
Reply: 166

Ask: Item CCc1cccc(C)c1CNc1cc(C(=O)N2CCCC2)cc2c1nc(C)n2C has what recorded melting point?
Reply: 126

---

Please respond with reported melting point for every item in the list.

Ask: Item Cc1cccc(C)c1CNc1cc(C(=O)NN)cc2c1nc(C)n2C has what recorded melting point?
Reply: 277 to 278 °C

Ask: Item Cc1cccc(C)c1COc1cc(C(=O)O)cc2c1nc(C)n2C has what recorded melting point?
Reply: 285 to 286 °C

Ask: Item CCOC(=O)c1cc(NCc2c(C)cccc2CC)c2nc(COC)n(C)c2c1 has what recorded melting point?
Reply: 106 to 107 °C
